Molecular target: neutrophil elastase in human plasma (Homo sapiens (Human), UniProt P08246)
Sequence (P08246 30-267): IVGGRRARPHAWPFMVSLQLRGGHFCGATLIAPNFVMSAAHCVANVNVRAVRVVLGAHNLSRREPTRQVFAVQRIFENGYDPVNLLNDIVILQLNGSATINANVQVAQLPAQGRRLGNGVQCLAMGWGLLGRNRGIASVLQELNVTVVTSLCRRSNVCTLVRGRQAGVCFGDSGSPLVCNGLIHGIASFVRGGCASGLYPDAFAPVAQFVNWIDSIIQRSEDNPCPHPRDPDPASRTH
Assay: Assay for the Determination of Neutrophil Elastase Inhibitory Activity in Human Plasma
Settings: neutrophil elastase enriched human plasma (zymosan-stimulated blood)
pEC50: −log10 of the molar value.
measured.endpoint: pEC50

Hey, neutrophil elastase in human plasma (Homo sapiens (Human), UniProt P08246) data for CCNC(=O)N1C(=O)N(c2cccc(C(F)(F)F)c2)C2=C(C(=O)CCC2)C1c1ccc(C#N)cc1S(C)(=O)=O (stereo not drawn) [Example 47.1] : pEC50 came out at 9.00

Test item CNC(=O)N1C(=O)N(c2cccc(C(F)(F)F)c2)C2=C(C(=O)CCC2)[C@H]1c1ccc(C#N)cc1S(C)(=O)=O (single isomer, unassigned) [Example 47A] ; neutrophil elastase in human plasma (Homo sapiens (Human), UniProt P08246); reported pEC50 was 9.00

Summary: CCS(=O)(=O)c1cc(C#N)ccc1[C@H]1NC(=O)N(c2cccc(C(F)(F)F)c2)C2=C1C(=O)CCC2 (single isomer, unassigned) [Example 54A] , neutrophil elastase in human plasma (Homo sapiens (Human), UniProt P08246), pEC50 = 9.00

Where do the numbers come from? From patent USRE47493E1.
